B1: PTPRD (parent)
chain: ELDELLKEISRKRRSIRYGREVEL

# Variants of: B1
# test: protein stability index of a GFP-peptide fusion (GPS, HEK-293T) (PSI 1-6); higher = more stable;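 further: lentivirally expressed fusions sorted by FACS into six bins by GFP to DsRed ratio, PSI derived from sequencing read proportions per bin multiplied by bin number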
# conditionInfo: c terminus: a fixed tail appended
The variants listed here are annotated with their protein stability index.
Please give only the number in your answer, with no unit.

[[record]]
mutationlist = "R17T"
quantitativereadout = 2.15

[[record]]
mutationlist = "L6C"
quantitativereadout = 3.29

[[record]]
mutationlist = "E21R"
quantitativereadout = 2.23

[[record]]
mutationlist = "Y18Q"
quantitativereadout = 2.43

[[record]]
mutationlist = "L5M"
quantitativereadout = 3.25


**Q:** Form field: reported protein stability index of Y18F
**A:** 2.33

**Q:** Form field: reported protein stability index of E21N
**A:** 1.93

**Q:** Form field: reported protein stability index of I9M
**A:** 2.64
